System: HL-60
PROTOCOL_SUMMARY: NCI tumour cell line growth inhibition, 48 h
Calls of active or inactive are those of the source. Cut-off read from the data, not from the text of the source: active = GI50 up to about 1.1 µM and inactive = higher. Peptide text beside a SMILES is read from it. * marks the point of attachment. Cbz = O=C(OCc1ccccc1)*
Possible outcomes: active, inactive

> print(dat)
                                    compound     class
 1  COc1ccc(/C=N\O[Si](C)(C)C(C)(C)C)cc1O[Si](C)(C)C(C)(C)C  inactive
 2  c1ccc([C@@H]2N[C@@]3(CO[Si](c4ccccc4)(c4ccccc4)c4ccccc4)CC[C@H]4CN[C@@H]2[C@H]43)cc1  inactive
 3  CC(C)c1ccc2c(c1)CCC1C(C)(C)[C@@H](O)CC[C@]21C (some centres not stated)  inactive
 4  C=C1c2nc3ccccc3n2C=C(c2ccccc2)N1c1ccc(Cl)cc1  inactive
 5  Brc1ccc(/N=c2/nc3ccccn3n3nc(-c4ccccc4)cc23)cc1  inactive
 6  CC(Cc1ccc(O)c(O)c1)C(C)Cc1ccc(O)c(O)c1 (configuration not stated) [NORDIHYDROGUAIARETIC ACID]  inactive
 7            O=C1/C(=C/c2ccccc2)CCc2ccccc21  inactive
 8           Cc1ccc2nc(-c3ccc(N)c(I)c3)sc2c1  inactive
 9  COc1cc(CNc2nc3cc(C(F)(F)F)ccc3nc2C(=O)O)cc(OC)c1OC    active
10               COc1ccc2[nH]c3c(O)nncc3c2c1  inactive
11  CC1(C)CC(=O)C(C(=O)C(=O)NC2=C(Cl)C(=O)c3ccccc3C2=O)C(=O)C1  inactive
12  O=C(O)CCC(NC(=O)OCc1ccccc1)C(=O)NC(Cc1c[nH]cn1)C(=O)O (stereo not drawn) (Cbz-Glu-His-OH; configuration not given here)  inactive

====

Test system: KM12
PROTOCOL_SUMMARY: NCI tumour cell line growth inhibition, 48 h
The source made the active and inactive calls. Cut-off read from the data, not from the text of the source: active = GI50 up to about 1.1 µM and inactive = higher.
Outcome codes: Yes (active), No (inactive)

> print(dat)
                            smiles.notation  measured.target  class
1                CN(C)/N=N/c1ccc(C(N)=O)cc1             KM12     No
2              O=C1C=CC(=NNc2ccccc2)C=CC1=O             KM12     No
3  CC(=O)Nc1cc(C(=O)Nc2cc(C(=O)Nc3cc(C(=O)Nc4cc(C(=O)Nc5cc(C(=O)NCCC(=O)NCCCN(C)C)n(C)c5)n(C)c4)n(C)c3)n(C)c2)n(C)c1             KM12     No
4  CCSc1c2ccccc2c(-c2nc(F)nc(F)n2)n1CCc1ccccc1             KM12     No
5  CCc1nc2ccc(NCCN(C)C)c3c(=O)c4ccccc4n1c23             KM12    Yes

====

Tested on: HOP-92
PROTOCOL_SUMMARY: NCI tumour cell line growth inhibition, 48 h
Activity calls are given as the source filed them. Rule as the data show it: active = GI50 up to about 1.1 µM and inactive = higher.
Labels: Yes (active), No (inactive)

COMPOUND	CLASS
CN(C)CCCn1nc(N)c2nc3cc(Cl)ccc3nc21	No
CC1=NN(C(=O)c2ccc(Cl)cc2)C(=O)/C1=C/c1ccc(Cl)cc1	No
CC(=O)O[C@H]1C[C@@H](OC(C)=O)[C@@](C)(O)[C@@H]2[C@@H](OC(C)=O)[C@@]3(O)[C@H](/C=C(/CO)[C@H]4O[C@H]4[C@@H](OC(C)=O)[C@@]12C)OC(=O)[C@@H]3C	No
[O-][n+]1cc(SCc2ccccc2)ncc1SCc1ccccc1	No
COc1c2c(c(OC)c3c1c(=O)c1ccccc1n3C)OCO2	No
CC1=NN(C(=O)c2ccccc2O)C(=O)/C1=C/c1cccc([N+](=O)[O-])c1	No
NC(=O)c1ccccc1NC(=O)C(=O)C(C(=O)c1ccc2ccccc2c1)C1OC(=O)c2ccccc21 (centres undefined)	No
CN1C/C(=C\c2ccccc2[N+](=O)[O-])C(=O)/C(=C/c2ccccc2[N+](=O)[O-])C1	Yes
Cn1c(=O)[nH]n(-c2ccc3ccccc3c2)c1=O	No
COc1cc2oc3c(c(=O)c2c(O)c1/C=C/C(C)C)CCC(C)(C)Oc1cc(O)ccc1-3	No
COC(=O)[C@@H](NC(=O)[C@H](N)Cc1ccc(N(CCCl)CCCl)cc1)C(C)C	No
CN(C)CC1CCC(CN(C)C)C(=O)C1=O (centres undefined)	No
CCc1ccc(Nc2cc(=O)[nH]c(=S)n2C)cc1	No
COc1ccc2c(c1)CC[C@@H]1[C@@H]2CC[C@]2(C)C(=O)/C(=C/c3ccc(N(C)C)cc3)C[C@@H]12	No

====

Reported GI50 values for a set of compounds
Test system: TK-10
PROTOCOL_SUMMARY: NCI tumour cell line growth inhibition, 48 h
Calls of active or inactive are those of the source. No stated cut-off is given here; in the data, active = GI50 up to about 1.1 µM and inactive = higher.
ASSAY_ENDPOINT: GI50

> print(dat)
                                   compound       observed.value
1  CC(C)C1=C(Cc2ccccc2)C(=O)O/C1=C\c1ccc(O)c(Cl)c1   17.7 µM (inactive)
2                       CCCCc1nc(C)oc1C(C)C  > 100 µM (inactive)
3  C=C1c2nc3ccccc3n2C=C(c2ccccc2)N1c1ccc(Cl)cc1   13.4 µM (inactive)
4    COC(=O)C1(Cc2ccccc2)Cc2cc3c(cc2C1)CCC3   68.7 µM (inactive)
5  COc1cccc2c1C(=O)C1(O)CCCCC21 (stereo unspecified)  > 100 µM (inactive)
6  CCOC(=O)NC(=O)c1cn(CC(=O)NCC(=O)NCC(=O)N2CCN(CCn3c(C)nc(C(N)=O)c3N)CC2)c(=O)[nH]c1=O  > 100 µM (inactive)

====

Tested on: NCI-H226
PROTOCOL_SUMMARY: NCI tumour cell line growth inhibition, 48 h
Activity calls are given as the source filed them. No stated cut-off is given here; in the data, active = GI50 up to about 1.1 µM and inactive = higher.
ASSAY_ENDPOINT: GI50

> print(dat)
                                   compound       observed.value
1  CCOC(=O)c1ccc(Nc2c3c(nc4ccccc24)CCCC3)cc1  > 100 µM (inactive)
2  CCCN(CCCc1ccccc1)CCc1ccc2[nH]c(=S)[nH]c2c1   66.5 µM (inactive)
3  N=C(N)c1ccc(/N=N\c2c(O)c(C(=O)Nc3ccccc3)cc3ccccc23)cc1   34.8 µM (inactive)
4    COc1ccc(/C(Cl)=C(\C=O)c2ccc(OC)cc2)cc1  > 100 µM (inactive)
5  CC(C)=Cc1cc(C(=O)NCCNC(=O)c2cc(C=C(C)C)nc(NC#N)n2)nc(NC#N)n1  > 100 µM (inactive)
6                  C=C(C)[C@@H]1CC=C(CO)CC1    251 µM (inactive)
7  CCN1CCC(C)OP1(=O)Cc1ccccc1 (centres undefined)  > 100 µM (inactive)
8              COc1ccc2oc(=N)c(C(N)=S)cc2c1   19.9 µM (inactive)
9      O=S(=O)(O)CCCC1S(=O)(=O)OCCOS1(=O)=O  > 100 µM (inactive)

====

Test system: MOLT-4
PROTOCOL_SUMMARY: NCI tumour cell line growth inhibition, 48 h
Active and inactive are the calls of the source. No stated cut-off is given here; in the data, active = GI50 up to about 1.1 µM and inactive = higher.
ASSAY_ENDPOINT: GI50

> print(dat)
                            smiles.notation      observed.value
1       CCN(CC)CCNC(=O)c1cccc2nc3ccccc3nc12  4.91 µM (inactive)
2  CC1(C)O[C@@H](CBr)C[C@H](C[C@H]2C[C@@H](O)C[C@@H](CCOCc3ccccc3)O2)O1  47.1 µM (inactive)
3  CC(C)C1=C(Cc2ccccc2)C(=O)O/C1=C\c1ccc(O)c(Cl)c1  10.9 µM (inactive)
4  COC1=CC(=C(C#N)/C(=N\c2ccccc2)SC)C=C(OC)C1=O  20.8 µM (inactive)

====

Test system: MOLT-4
PROTOCOL_SUMMARY: NCI tumour cell line growth inhibition, 48 h
Active and inactive are the calls of the source. Rule as the data show it: active = GI50 up to about 1.1 µM and inactive = higher.
ASSAY_ENDPOINT: GI50

> print(dat)
                                   compound       observed.value
1    NCCNCCCNC(=O)c1cc(-c2ccccc2)nc2ccccc12   22.1 µM (inactive)
2                       ClCc1nc2ccccc2[nH]1     54 µM (inactive)
3      COc1cc2c(cc1O)NC(=S)[C@@H]1CCCN1C2=O  > 100 µM (inactive)
4  CC(=O)N1c2ccccc2C2=NN=C(N(C)C)SC21 (configuration not stated)   3.09 µM (inactive)
5  CCc1ccccc1NC(=O)C(=O)CC(=O)c1sc(Nc2ccccc2)nc1C   48.6 µM (inactive)
6  CCOC(=O)NC(=O)c1cn(CCN2CCN(C(=O)CCCCCCCCCCNc3ncnc4c3ncn4C3OC(CO)C(O)C3O)CC2)c(=O)[nH]c1=O (configuration not stated)  > 100 µM (inactive)
7  CCCN(CCCc1ccccc1)CCc1ccc2[nH]c(=S)[nH]c2c1   11.3 µM (inactive)
